Assay: Vapor-phase butanethiol removal, static headspace GC/MS
Settings: 1 μL sample in 10 mL vial, 30 minutes room temperature, 1% w/w n-octylamine
Structures can show the parent of a compound that is named as a salt.
measurement-name: % reduction in butanethiol concentration, 1% w/w n-octylamine (%)
Please give a number only; it is taken to be in %.

What does the data say about its % reduction in butanethiol concentration, 1% w/w n-octylamine? Entry: C=CC(=O)OCCCCCC [Hexyl Acrylate] 21

What does the data say about its % reduction in butanethiol concentration, 1% w/w n-octylamine? Entry: CCOC(=O)/C=C\C(=O)OCC [Diethyl Maleate] 8.1

What does the data say about its % reduction in butanethiol concentration, 1% w/w n-octylamine? Entry: O=C1C=CC(=O)N1c1ccccc1 [n-phenylmaleimide] 2.2

What does the data say about its % reduction in butanethiol concentration, 1% w/w n-octylamine? Entry: C/C=C/C(=O)C1C(C)C=CCC1(C)C (centres unmarked) 24.4

What does the data say about its % reduction in butanethiol concentration, 1% w/w n-octylamine? Entry: CCOC(=O)/C=C/C(=O)OCC [Diethyl Fumarate] 11.2

###

Experiment: Headspace SPME GC/MS malodor removal by aqueous Composition 3 (butylamine)
Details: 0.5 wt. % activated alkene in Composition 3, pH 7, no catalyst; 2 hours room temperature, 30 minutes 35° C.; numbers less than 1 = reduced malodor
Counter-ions that a name gives are not always drawn.
measurement-name: Butylamine head space concentration normalized to Control composition, Replicate 2
# answer = number (no unit)

What does the data say about its Butylamine head space concentration normalized to Control composition, Replicate 2? Entry: C/C=C/C(=O)C1=C(C)C=CCC1(C)C 1.1

What does the data say about its Butylamine head space concentration normalized to Control composition, Replicate 2? Entry: CCOC(=O)/C=C\C(=O)OCC [Diethyl Maleate] 0.0

What does the data say about its Butylamine head space concentration normalized to Control composition, Replicate 2? Entry: O=C1C=CC(=O)N1C1CCCCC1 [N-Cyclohexylmaleimide] 0.0

What does the data say about its Butylamine head space concentration normalized to Control composition, Replicate 2? Entry: CCOC(=O)/C=C/C(=O)OCC [Diethyl Fumarate] 0.1

What does the data say about its Butylamine head space concentration normalized to Control composition, Replicate 2? Entry: C=CC(=O)OCCCCCC [Hexyl Acrylate] 0.5

What does the data say about its Butylamine head space concentration normalized to Control composition, Replicate 2? Entry: CCc1occc(=O)c1O 0.0

What does the data say about its Butylamine head space concentration normalized to Control composition, Replicate 2? Entry: CC(C)=CCCC(C)=CC=O 0.0

What does the data say about its Butylamine head space concentration normalized to Control composition, Replicate 2? Entry: C=CC(=O)N(C)C [N,N Dimethyl Acrylamide] 1.0

###

Experiment: Vapor-phase butanethiol removal, static headspace GC/MS
Conditions: 1 μL sample in 10 mL vial, 30 minutes room temperature, 1% w/w DBU
Description: This example illustrates the malodor removal efficacy of exemplary activated alkenes-catalyst systems in the vapor phase. […] Samples are then analyzed using a GC/MS with a DB-5, 20 m, 1 μm film thickness column with an MPS-2 autosampler equipment with static headspace function. Data is analyzed by ion extraction on each total ion current (56 for thiol) and the area is used to calculate the percent reduction from the malodor standard for each sample. […]
Counter-ions that a name gives are not always drawn.
Kindly supply the reported % reduction in butanethiol concentration, 1% w/w DBU values for the records listed here.
Please give a number only; it is taken to be in %.

What does the data say about its % reduction in butanethiol concentration, 1% w/w DBU? Entry: C=CC(=O)OCCCCCC [Hexyl Acrylate] 23.1

What does the data say about its % reduction in butanethiol concentration, 1% w/w DBU? Entry: O=C1C=CC(=O)N1c1ccccc1 [n-phenylmaleimide] 10

What does the data say about its % reduction in butanethiol concentration, 1% w/w DBU? Entry: CCOC(=O)/C=C\C(=O)OCC [Diethyl Maleate] 44.3

What does the data say about its % reduction in butanethiol concentration, 1% w/w DBU? Entry: CCOC(=O)/C=C/C(=O)OCC [Diethyl Fumarate] 63

What does the data say about its % reduction in butanethiol concentration, 1% w/w DBU? Entry: C/C=C/C(=O)C1C(C)C=CCC1(C)C (centres unmarked) 99.6
